experiment: NALP3 inhibitors retested in yeast, confirmation, luminescence, single concentration (AID 435006); conditions: yeast expressing human NALP3, luminescence; at 10 µM
Hit rate of the full screen: of about 1,300 compounds, about 1,100 (85%) were called active. Rule as the data show it: active = inhibition above about 48%; inactive = the rest. The set was probably picked from earlier hits. These entries were drawn from the full list.
Possible outcomes: true for active, false for inactive

compound: C[C@@H]1C[C@@H]2O[C@H]2/C=C\C=C\C(=O)Cc2c(Cl)c(O)cc(O)c2C(=O)O1
classification: true
--
compound: CC(=NCc1ccc2c(c1)OCO2)C1=C(O)c2ccccc2C1=O
classification: true
--
compound: COc1ccc(OCc2nnc3n2N=C(c2ccccc2)C(CC(=O)O)S3)cc1 (stereo not given)
classification: false
--
compound: COc1ccccc1OCc1nc2ccccc2s1
classification: true
--
compound: Cc1ccc(OCc2nc3ccccc3n2C)cc1
classification: true
--
compound: CCCc1nc2c(c(=O)c3ccccc3n2C)c(=O)n1C1CCCCCC1
classification: false
--
compound: O=C(COc1ccccc1F)Nc1nc(-c2ccccn2)cs1
classification: true
--
compound: O=C(NCc1ccc2c(c1)OCO2)c1c(O)nc2sccn2c1=O
classification: true
--
compound: O=C(Nc1ccccc1Cl)/C(Cl)=C(\Cl)S(=O)c1ccccc1 (stereo not given)
classification: true
--
compound: CCCCCCC12CCC(C(=O)O)(CC1)CC2
classification: true
--
compound: Fc1ccccc1-c1cc2cc3c(cc2cn1)OCO3
classification: true
--
compound: Oc1c(Cl)cc(Cl)c(Cl)c1Cc1c(O)c(Cl)cc(Cl)c1Cl
classification: true
--
compound: COc1cccc(/C=N/Nc2cc(C)nc(-c3ccccc3O)n2)c1O
classification: false
--
compound: CCCN(CC1CC1)C(=S)NC(=O)c1ccccc1Br
classification: true
--
compound: N#Cc1nc(Cc2ccccc2)oc1NCCc1ccccc1
classification: true
--
compound: CC(C)n1c(COc2ccccc2)nc2ccccc21
classification: true
--
compound: CC1CC2=C(CC1/C=N/NC(N)=S)C(C)(C)CCC2 (stereo not given)
classification: false
--
compound: O=C(Nc1ccc2oc(-c3ccccc3F)nc2c1)c1ccco1
classification: true
--
compound: O=C1C=C(c2ccc(Cl)cc2)C(=O)N1Nc1ccccc1
classification: true
--
compound: CCc1cc(C(=O)Nc2nnc(C3CC3)s2)sc1C
classification: true
--
compound: O=C(Nc1ccccc1)c1cc2ccccc2[nH]1
classification: true
--
compound: Nc1c(-c2cccc(Cl)c2)cnn1-c1cccc([N+](=O)[O-])c1
classification: true
--
compound: Cc1cc(C)c(/C=C2\C(=O)Nc3ccccc32)[nH]1
classification: true
--
compound: O=[N+]([O-])/C=C/c1ccc2c(ccn2Cc2ccccc2)c1
classification: true
--
compound: CCCNc1ncnc2sc(C)c(C)c12
classification: true

----------
test: NALP3 inhibitors retested in yeast, confirmation, luminescence, single concentration (AID 435006); conditions: yeast expressing human NALP3, luminescence; at 10 µM; stronger effect = higher value
Out of some 1,300 compounds screened, about 1,100 (85%) were called active. So high a share suggests a set chosen from earlier hits. Only a sample is shown.
# inhibition per entry
test readout: inhibition (%)

chemical smiles: O=C(CSc1ccc(-c2ccc(-n3cccn3)cc2)nn1)Nc1ccc([N+](=O)[O-])cc1
unit descriptor: %
val: 41

chemical smiles: O=C(CC(O)(C(F)(F)F)C(F)(F)F)Nc1ccc(Cl)c(Cl)c1
unit descriptor: %
val: 97.9

chemical smiles: CN=C1C=C/C(=N/N=c2\ccn(O)cc2C)C=C1C
unit descriptor: %
val: 57.2

chemical smiles: CN(C)c1ccnc2sc(C(=O)c3ccccc3)c(N)c12
unit descriptor: %
val: 68

chemical smiles: Cc1cc(C(=O)COc2ccc(Br)cc2F)c(C)n1C1CC1
unit descriptor: %
val: 54.5

chemical smiles: CCSc1nc2sc3c(c2c(=O)n1-c1ccc(C)cc1)CCN(C)C3
unit descriptor: %
val: 69.4
